# TESTED_ON: androgen receptor (AR) (Homo sapiens, UniProt P10275, T878A)
# Construct: endogenous in cells
# ASSAY_TEXT: Androgen-induced PSA-luciferase assay, Luciferase Assay A (LNCaP transiently transfected with PSA (6.1 kb)-luciferase reporter)
# TEST_CONTEXT: LNCaP cells, 1 h pretreatment, R1881 (1 nM) 24 h, read-out: PSA-Luc IC50 Range
# Description: The PSA (6.1 kb)-luciferase reporter contains functional AREs (androgen response elements) to which AR binds in response to androgen to induce luciferase activity. […] After 24 h of incubation with R1881, the cells were harvested, and relative luciferase activities were determined (FIG. 1). […]
pIC50: −log10 of the molar value.
PROPERTY_NAME: pIC50

Q. Entry C=COc1c(Cl)cc(C(C)(C)c2ccc(COc3ccnc(NS(C)(=O)=O)n3)cc2)cc1C#N , system androgen receptor (AR) (Homo sapiens, UniProt P10275, T878A): what pIC50 was measured?
A. < 5.70

Q. Let us now turn to CC(C)(c1ccc(-c2ccc(N3CCN(S(C)(=O)=O)CC3)nc2)cc1)c1cc(Cl)c(OCCCl)c(C#N)c1
A. 5.70 to 6.30

Q. Let us now turn to CS(=O)(=O)NC1CCN(Cc2ccc(Oc3cc(Cl)c(OCCCl)c(C#N)c3)cc2)CC1(F)F (stereo not drawn)
A. < 5.70

Q. Let us now turn to CC(C)(c1cc(Cl)c(OCCCl)c(C#N)c1)c1ccc(OCc2ccnc(NS(C)(=O)=O)n2)c(CO)c1
A. < 5.70

Q. Let us now turn to CS(=O)(=O)N[C@H]1C[C@H](n2cc(-c3ccc(N(CC(F)(F)F)c4cc(Cl)c(OCCCl)c(C#N)c4)cc3)cn2)C1
A. 5.70 to 6.30

Q. Let us now turn to C=Cc1c(Cl)cc(C(C)(C)c2ccc(OCc3ccnc(NS(C)(=O)=O)n3)cc2)cc1C#N
A. 5.70 to 6.30

Q. Let us now turn to CC(C)(c1ccc(-c2cnc(NC3CN(S(C)(=O)=O)C3)nc2)cc1)c1cc(Cl)c(OCCCl)c(C#N)c1
A. 5.70 to 6.30

Q. Let us now turn to CS(=O)(=O)Nc1cnc2cc(N3CCC(Oc4cc(Cl)c(OCCCl)c(C#N)c4)CC3)ccc2n1
A. < 5.70

Q. Let us now turn to CC(C)(c1ccc(OC[C@H]2C[C@H](CNS(C)(=O)=O)C2)cc1)c1cc(Cl)c(OCCCl)c(C#N)c1
A. 5.70 to 6.30

---

# TESTED_ON: androgen receptor (AR) (Homo sapiens, UniProt P10275, T878A)
# Construct: endogenous in cells
# ASSAY_TEXT: Androgen-induced PSA-luciferase assay, Luciferase Assay A (LNCaP transiently transfected with PSA (6.1 kb)-luciferase reporter)
# TEST_CONTEXT: LNCaP cells, 1 h pretreatment, R1881 (1 nM) 24 h, read-out: PSA-Luc IC50 Range
PROPERTY_NAME: IC50

Q. If you can, please state the reported IC50 value of CC(C)(c1ccc(OCc2ccnc(-n3cnc(S(N)(=O)=O)n3)n2)cc1)c1cc(Cl)c(OCCCl)c(C#N)c1 .
A. 500 to 2000 nM

Q. Let us now turn to CC(C)(c1ccc(OCc2ccnc(NS(C)(=O)=O)n2)cc1)c1cc(Cl)c(OC2CCC2)c(C#N)c1
A. 500 to 2000 nM

Q. Let us now turn to CC(C)(c1ccc(OC2CC3(C2)CN(S(C)(=O)=O)C3)cc1)c1cc(Cl)c(N2CCOCC2)c(C#N)c1
A. 500 to 2000 nM

Q. Let us now turn to CC(C)(c1ccc(OCc2ccnc(NS(C)(=O)=O)n2)cc1)c1cc(Cl)c(N2CCC(F)CC2)c(C#N)c1
A. > 2000 nM

---

Give measured IC50 for each item. Keep answers brief.
# TESTED_ON: androgen receptor (AR) (Homo sapiens)
# ASSAY_TEXT: Androgen-induced PSA-luciferase assay, Luciferase Assay B (cells stably expressing ARR2PB or PSA-firefly luciferase reporter, 384-well)
# TEST_CONTEXT: Luciferase Assay B (Compounds A186-A219 and A221-A245); stable luciferase reporter cells, 1 h pretreatment, R1881 24 h, serum-free; read-out: PSA-Luc IC50 Range

Q. If you can, please state the reported IC50 value of CS(=O)(=O)Nc1cc2n(n1)CCN(c1ccc(Oc3cc(Cl)c(OC4CC4)c(C#N)c3)cc1)C2 .
A. > 2000 nM

Q. Let us now turn to CS(=O)(=O)Nc1nc2ccc(-c3ccc(Oc4cc(Cl)c(OC5CC5)c(C#N)c4)cc3)cc2cc1F
A. 500 to 2000 nM

Q. Let us now turn to CS(=O)(=O)Nc1cc2ccc(-c3ccc(Oc4cc(Cl)c(OC5CC5)c(C#N)c4)cc3)cc2nn1
A. < 500 nM

Q. Let us now turn to CS(=O)(=O)Nc1cnc2cc(-c3ccc(N(CC(F)(F)F)c4cnc(N5CCOCC5)c(C#N)c4)cc3)ccc2n1
A. 500 to 2000 nM

Q. Let us now turn to CS(=O)(=O)Nc1cnc2cc(-c3ccc(Oc4cc(C#N)c(OC5CC5)c(C(F)(F)F)c4)cc3)ccc2n1
A. 500 to 2000 nM

Q. Let us now turn to CS(=O)(=O)Nc1cnc2cc(-c3ccc(Oc4cnc(OC5CC5)c(Cl)c4)cc3)ccc2n1
A. 500 to 2000 nM

Q. Let us now turn to CC(=O)N1CCN(c2nccc(COc3ccc(C(C)(C)c4cc(Cl)c(OC5CC5)c(C#N)c4)cc3)n2)CC1
A. < 500 nM

Q. Let us now turn to CC(C)(c1ccc(OCc2ccnc(N3CCOCC3)n2)cc1)c1cc(Cl)c(OC2CC2)c(C#N)c1
A. 500 to 2000 nM

Q. Let us now turn to N#Cc1cc(Oc2ccc(-c3ccc4nc(N)cnc4c3)cc2)cc(Cl)c1OC1CC1
A. > 2000 nM

Q. Let us now turn to CS(=O)(=O)Nc1cc(=O)n2cc(-c3ccc(Oc4cc(Cl)c(OC5CC5)c(C#N)c4)cc3)ccc2n1
A. > 2000 nM

Q. Let us now turn to CN(c1cnc2cc(-c3ccc(N(CC(F)(F)F)c4cnc(OC5CC5)c(C#N)c4)cc3)ccc2n1)S(C)(=O)=O
A. < 500 nM

Q. Let us now turn to N#Cc1cc(Oc2ccc(-c3ccc4nc(N5CCNCC5)ncc4c3)cc2)cc(Cl)c1OC1CC1
A. > 2000 nM

Q. Let us now turn to CS(=O)(=O)Nc1cnc2cc(-c3ccc(Nc4cc(Cl)c(OC5CC5)c(C#N)c4)cc3)ccc2n1
A. 500 to 2000 nM

Q. Let us now turn to CS(=O)(=O)NCc1cnc2cc(-c3ccc(Oc4cc(Cl)c(OC5CC5)c(C#N)c4)cc3)ccc2n1
A. 500 to 2000 nM

Q. Let us now turn to CS(=O)(=O)Nc1cc2cn(Cc3ccc(Oc4cc(Cl)c(OC5CC5)c(C#N)c4)cc3)nc2cn1
A. 500 to 2000 nM

Q. Let us now turn to CS(=O)(=O)Nc1cnc2cc(-c3ccc(N(CC(F)(F)F)c4cc(F)c(OC5CC5)c(C#N)c4)cc3)ccc2n1
A. < 500 nM

Q. Let us now turn to N#Cc1cc(Oc2ccc(-c3ccc4nc(NC5CS(=O)(=O)C5)cnc4c3)cc2)cc(Cl)c1OC1CC1
A. > 2000 nM

Q. Let us now turn to CS(=O)(=O)Nc1cnc2cc(-c3ccc(Oc4cc(Cl)c(OCCC(F)(F)F)c(C#N)c4)cc3)ccc2n1
A. 500 to 2000 nM

Q. Let us now turn to N#Cc1cc(Oc2ccc(-c3ccc4nc(N5CCOCC5)cnc4c3)cc2)cc(Cl)c1OC1CC1
A. > 2000 nM

---

Give measured IC50 for each item. Keep answers brief.
# TESTED_ON: androgen receptor (AR) (Homo sapiens, UniProt P10275, T878A)
# Construct: endogenous in cells
# Sequence (P10275 1-920 T878A): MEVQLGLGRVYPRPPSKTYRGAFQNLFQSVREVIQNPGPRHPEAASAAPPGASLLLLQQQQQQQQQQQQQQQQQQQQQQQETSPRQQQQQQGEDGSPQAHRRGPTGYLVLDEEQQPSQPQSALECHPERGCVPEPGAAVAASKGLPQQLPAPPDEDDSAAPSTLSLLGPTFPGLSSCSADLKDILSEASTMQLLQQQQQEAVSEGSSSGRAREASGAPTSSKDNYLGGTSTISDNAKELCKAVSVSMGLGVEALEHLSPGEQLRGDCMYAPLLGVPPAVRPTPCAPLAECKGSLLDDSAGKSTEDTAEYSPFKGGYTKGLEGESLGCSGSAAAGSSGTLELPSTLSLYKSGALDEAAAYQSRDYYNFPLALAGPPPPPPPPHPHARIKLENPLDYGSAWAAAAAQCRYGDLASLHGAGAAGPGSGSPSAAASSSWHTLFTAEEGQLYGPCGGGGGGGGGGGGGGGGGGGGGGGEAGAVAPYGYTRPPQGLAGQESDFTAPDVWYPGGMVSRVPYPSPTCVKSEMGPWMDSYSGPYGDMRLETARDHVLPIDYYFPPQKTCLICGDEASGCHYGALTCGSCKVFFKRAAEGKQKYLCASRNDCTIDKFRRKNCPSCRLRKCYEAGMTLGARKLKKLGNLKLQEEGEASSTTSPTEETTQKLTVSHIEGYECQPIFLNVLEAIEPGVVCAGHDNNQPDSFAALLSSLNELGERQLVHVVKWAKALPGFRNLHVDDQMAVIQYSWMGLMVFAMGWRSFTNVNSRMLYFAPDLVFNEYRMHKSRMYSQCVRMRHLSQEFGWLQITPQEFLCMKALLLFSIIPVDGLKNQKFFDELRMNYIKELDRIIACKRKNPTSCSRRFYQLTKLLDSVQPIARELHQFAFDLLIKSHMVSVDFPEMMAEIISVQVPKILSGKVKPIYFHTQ
# ASSAY_TEXT: Androgen-induced PSA-luciferase assay, Luciferase Assay A (LNCaP transiently transfected with PSA (6.1 kb)-luciferase reporter)
# TEST_CONTEXT: LNCaP cells, 1 h pretreatment, R1881 (1 nM) 24 h, read-out: PSA-Luc IC50 Range

Q. If you can, please state the reported IC50 value of CC(C)(c1ccc(OCc2ccnc(NS(C)(=O)=O)n2)cc1)c1cc(Cl)c(OC2CC(F)(F)C2)c(C#N)c1 .
A. 500 to 2000 nM

Q. Let us now turn to COc1c(Cl)cc(N(c2ccc(-c3ccc4nc(NS(C)(=O)=O)cnc4c3)cc2)C2CC2)cc1C#N
A. < 500 nM

Q. Let us now turn to CC(C)(C)OC(=O)N1CCN(c2cc(COc3ccc(C(C)(C)c4cc(Cl)c(OCCCl)c(C#N)c4)cc3)nc(NS(C)(=O)=O)n2)CC1
A. > 2000 nM

Q. Let us now turn to COc1c(Cl)cc(C(C)(C)c2ccc(OCc3ccnc(NS(C)(=O)=O)n3)cc2)cc1C#N
A. 500 to 2000 nM

Q. Let us now turn to CS(=O)(=O)Nc1cnc2cc(-c3ccc(N(c4cc(Cl)c(OCCCl)c(C#N)c4)C4CC4)cc3)ccc2n1
A. < 500 nM

Q. Let us now turn to CC(C)(c1ccc(OC[C@]2(F)C[C@@H](NS(C)(=O)=O)C2)cc1)c1cc(Cl)c(OCCCl)c(C#N)c1
A. 500 to 2000 nM

Q. Let us now turn to CC(C)(c1ccc(N2CCN(CCNS(C)(=O)=O)CC2)cc1)c1cc(Cl)c(OCCCl)c(C#N)c1
A. > 2000 nM

Q. Let us now turn to CS(=O)(=O)Nc1cnc2cc(-c3ccc(Oc4cc(Cl)c(OCCCl)c(C#N)c4)cc3)ccc2n1
A. 500 to 2000 nM

Q. Let us now turn to CC(C)(c1ccc(OC[C@]2(C)C[C@H](NS(C)(=O)=O)C2)cc1)c1cc(Cl)c(OCCCl)c(C#N)c1
A. > 2000 nM
